test_name: physchem
study_conditions: octanol/water, pH 10
metric: logP
Output: the number by itself.

# query: logP of entry `CS(C)(=O)=NC(=O)c1ccc(C(F)(F)F)cc1` 1.8

Please give the measured logP for this compound: `CS(=O)(=O)Oc1ccc(C(F)(F)F)cc1` 4.3

# lookup: logP of `CC(C)(C)OC(=O)c1ccc(C(F)(F)F)cc1` 4.8

Suppose we examine the compound `CNC(=O)c1ccc(C(F)(F)F)cc1` ; what logP value has been reported? 0.5

GET /values?readout=logP&item= C[S+]([O-])c1ccc(C(F)(F)F)cc1 (stereo not given) -0.3

Which logP is reported for this compound? CN=S(=O)(c1ccc(C(F)(F)F)cc1)N(C)C (stereo not given) 1.5

If you can, please state the reported logP value of `CC(=O)Nc1ccc(C(F)(F)F)cc1` . 1.8

Consider the compound shown here: CN=S(C)(=O)c1ccc(C(F)(F)F)cc1 (stereo not given) What is its recorded logP? 0.1

I would be grateful if you could share the reported logP for `N=S1(=Nc2ccc(C(F)(F)F)cc2)CCCCC1` . 1.3

Given the entry O=S1(c2ccc(C(F)(F)F)cc2)=NCCCC1 (stereo not given) , report its measured logP. 0.2

---

test_name: Dissociation constant, pKb of the compound in aqueous/organic mixture at pH 2 to 12 by potentiometric titration method
Format: physicochemical
study_conditions: buffer
Tag: label 1 if measured pKb is not below 4, label 0 if it is.

Please tell me: is the compound `O=S1(=Nc2ccncc2)CCCCC1` at or over 4 in terms of pKb? label 1

Could you please find out whether `O=S1(=Nc2cccnc2)CCCCC1` has pKb that meets 4 or exceeds it? label 1

In plain terms: is recorded pKb at least 4 for `O=S1(=Nc2ccc(C(F)(F)F)cc2)CCNCC1` ? label 1

Record `CS(C)(=N)=NC(=O)Nc1ccc(C(F)(F)F)cc1` ; criterion: pKb no lower than 4. Met? label 0

Confirm if pKb reported for the compound `CS(C)(=O)=N[C@H]1CC[C@@H](C(F)(F)F)CC1` is 4 or above. label 1

Record O=S1(c2ccc(C(F)(F)F)cc2)=NCCCC1 (configuration not stated) ; criterion: pKb no lower than 4. Met? label 0

---

test_name: in vitro
study_conditions: human, liver microsomes
metric: hepatic extraction ratio at 1 µM

hepatic extraction ratio at 1 µM lookup needed for `CS(=O)(=O)NC(=O)c1ccc(C(F)(F)F)cc1` , thanks. < 0.23

Name the recorded hepatic extraction ratio at 1 µM for `O=S1(=Nc2ccccc2Cl)CCCCC1` . 0.58

Value lookup for hepatic extraction ratio at 1 µM; key = `COc1ccc(N=S2(=O)CCCCC2)cc1` < 0.23

# input compound: `O=S1(=Nc2ccc(C(F)(F)F)cc2)CCNCC1` ; wanted: its hepatic extraction ratio at 1 µM 0.25

Find the recorded hepatic extraction ratio at 1 µM belonging to `O=S1(=Nc2ccc(C(F)(F)F)cc2)CCCCC1` and report it. 0.46

# input compound: `NS(=O)(=O)c1ccc(C(F)(F)F)cc1` ; wanted: its hepatic extraction ratio at 1 µM < 0.23

# query: hepatic extraction ratio at 1 µM of entry CS(=O)(=Nc1ccc(C(F)(F)F)cc1)C1CC1 (configuration not stated) < 0.23

---

test_name: Apparent partition coefficient, log P of the compound in n-octanol/aqueous mixture by potentiometric titration method
Type: physicochemical
Field: logP. Provide a value for each of the compounds that follow.
# print the numeric value only

# logP lookup, item CS(=O)(=Nc1ccc(C(F)(F)F)cc1)c1ccncc1 (stereo not drawn) 2.6

GET /values?readout=logP&item= `CS(C)(=O)=Nc1ccc(C(F)(F)F)cc1` 1.4

I have this compound here, `O=S1(=Nc2ccc(C(F)(F)F)cc2)CCCC1` , and I need its recorded logP. 2.4

What does the data say about its logP? Entry: `O=S1(=Nc2cccnc2)CCCCC1` -2.7

Record request: logP value, item `O=S1(=Nc2ccccc2)CCCCC1` -0.1

Reported logP, compound `O=S1(=Nc2ccc(C(F)(F)F)cc2)CCC1` : ____ 2.5

Any idea what logP was measured for `O=S1(=Nc2ccccc2Cl)CCCCC1` ? 2

Find the recorded logP belonging to `O=S1(=Nc2ccc(C(F)(F)F)cc2)CCOCC1` and report it. 2.7

What value of logP has been reported for the following compound? `C[S@](=O)(=Nc1ccc(C(F)(F)F)cc1)c1ccccc1` 3.7

I would be grateful if you could share the reported logP for CC(C)(C)S(C)(=O)=Nc1ccc(C(F)(F)F)cc1 (stereo not drawn) . 3.1

What logP value was documented for this compound, CS(=O)(=Nc1ccc(C(F)(F)F)cc1)C1CCOCC1 (stereo not drawn) ? 2.5

Return reported logP; argument: CCS(C)(=O)=Nc1ccc(C(F)(F)F)cc1 (stereo not drawn) 2

Could you tell me which logP is on file for `O=S1(=Nc2ccc(C(F)(F)F)cc2)CCNCC1` ? 0.9

Look up logP for this compound: `O=S1(=Nc2ccc(F)cc2)CCCCC1` 0.7

# query: logP of entry `COc1ccc(N=S2(=O)CCCCC2)cc1` -0.1

logP lookup needed for CS(=O)(=Nc1ccc(C(F)(F)F)cc1)c1cccnc1 (stereo not drawn) , thanks. 2.5

Need logP of `C[S@@](=O)(=Nc1ccc(C(F)(F)F)cc1)c1ccccc1` , thanks. 3.7

Reported logP, compound `O=S1(=Nc2ccc(C(F)(F)F)cc2)CCCCC1` : ____ 2.8

Reported logP for `N#Cc1ccc(N=S2(=O)CCCCC2)cc1` : what is it? 1.1

Returns the measured logP for the input compound. Input: `O=S1(=Nc2cc(C(F)(F)F)cc(C(F)(F)F)c2)CCCCC1` 4

Name the recorded logP for `Cn1cc(N=S2(=O)CCCCC2)cn1` . -3.9

So what does the record say about logP for CS(=O)(=Nc1ccc(C(F)(F)F)cc1)C1CC1 (stereo not drawn) ? 2.3

If you can, please state the reported logP value of `O=S1(=Nc2ccncc2)CCCCC1` . -2.6
